Every entry's value here was drawn from patent US20250011311A1.

target or system: recombinant 17bHSD13 (N2-K300) (Homo sapiens (Human), UniProt Q7Z5P4)
Sequence (Q7Z5P4 2-300): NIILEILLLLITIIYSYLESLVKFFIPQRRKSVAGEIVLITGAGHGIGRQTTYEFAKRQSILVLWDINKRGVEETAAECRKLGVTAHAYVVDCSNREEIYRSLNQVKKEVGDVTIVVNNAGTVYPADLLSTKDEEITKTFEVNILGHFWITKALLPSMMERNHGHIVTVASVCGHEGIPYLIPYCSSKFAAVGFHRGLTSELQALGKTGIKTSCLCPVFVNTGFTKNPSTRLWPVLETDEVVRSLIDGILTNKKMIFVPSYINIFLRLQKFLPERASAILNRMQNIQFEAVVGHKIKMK
measurement notes: In Vitro 17bHSD13 Enzyme Assay
condition notes: 80 nM 17bHSD13, 0.5 mM NAD, 20 μM Estradiol, 2.5 h; estradiol to estrone by LC-MS/MS
Procedure: In Vitro 17bHSD13 Enzyme Assay The enzyme reaction was initiated by addition, using CERTUS-FLEX dispenser (GYGER), of 20 μl of substrate solution containing NAD (SIGMA, N1511) and Estradiol (SIGMA, E8875). […] SCIEX LC-MS/MS system: Sample was injected with CTC analytical injector, SHIMATZU LC pumps LC20 and analyzed on the SCIEX API 5000 LCMSMS system with the following settings. […] Compound effect was calculated with the formula below; […]
Exercise: for every item that follows, state its recorded IC50.
Expressed in nM, but write only the number.

In plain terms, O=C(c1noc(-c2cc(F)c(F)c(O)c2F)n1)N1CCN(CCCOc2ccc(F)cc2)CC1 has a documented IC50 of 88

In plain terms, N#Cc1ccc(C2CCN(C(=O)c3noc(-c4cc(F)c(F)c(O)c4F)n3)CC2)cc1 has a documented IC50 of 142

In plain terms, CC(C)[C@H]1CN(C(=O)c2noc(-c3cc(F)c(F)c(O)c3F)n2)C[C@@H](C)O1 (racemic) has a documented IC50 of 85

In plain terms, C[C@@H]1C[C@H](C)CN(C(=O)c2nc(-c3cc(F)c(F)c(O)c3F)no2)C1 has a documented IC50 of 93

In plain terms, O=C(c1noc(-c2cc(F)c(F)c(O)c2F)n1)N1CCN(c2nc3ccccc3o2)CC1 has a documented IC50 of 62

In plain terms, N#Cc1c(C(=O)N2Cc3ccc(F)cc3C2)noc1-c1cc(F)c(F)c(O)c1F has a documented IC50 of 80

In plain terms, O=C(c1noc(-c2cc(F)c(F)c(O)c2F)n1)N1CCOC2CCCC21 (stereo not shown) has a documented IC50 of 82

====

target or system: over expressed HSD17β13 in HEK293S cells (Homo sapiens (Human), UniProt Q7Z5P4)
Sequence (Q7Z5P4 20-300): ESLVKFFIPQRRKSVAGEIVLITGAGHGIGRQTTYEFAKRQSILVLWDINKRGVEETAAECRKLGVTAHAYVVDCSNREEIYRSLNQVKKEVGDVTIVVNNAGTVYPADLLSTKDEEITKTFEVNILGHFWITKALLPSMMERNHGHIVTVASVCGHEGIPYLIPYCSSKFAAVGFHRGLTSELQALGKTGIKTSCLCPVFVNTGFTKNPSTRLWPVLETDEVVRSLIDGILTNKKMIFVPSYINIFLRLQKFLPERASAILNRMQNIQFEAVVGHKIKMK
measurement notes: In Vitro 17bHSD13 Cell Assay
Assay type: cell-based
condition notes: HEK293S cells over expressing HSD17β13; estradiol to estrone conversion, 18 h, LC-MS/MS; read-out: 17bHSD1713 Cell assay IC50
parameter: IC50 (nM)
Expressed in nM, but write only the number.

In plain terms, O=C(c1noc(-c2cc(F)c(F)c(O)c2F)n1)N1CCC2(C1)OCc1ccccc12 (stereo not drawn) has a documented IC50 of 700

In plain terms, O=C(c1noc(-c2cc(F)c(F)c(O)c2F)n1)N1CCSCC1 has a documented IC50 of 1460

In plain terms, O=C(c1noc(-c2cc(F)c(F)c(O)c2F)n1)N1CC[C@H](Oc2ccccc2)C1 has a documented IC50 of 700

====

target or system: over expressed HSD17β13 in HEK293S cells (Homo sapiens (Human))
measurement notes: In Vitro 17bHSD13 Cell Assay
Format: cell-based
condition notes: HEK293S cells over expressing HSD17β13; estradiol to estrone conversion, 18 h, LC-MS/MS; read-out: 17bHSD1713 Cell assay IC50
Exercise: for every item that follows, state its recorded IC50.
Expressed in nM, but write only the number.

IC50 on over expressed HSD17β13 in HEK293S cells (Homo sapiens (Human)) for COc1ccc(N2CCN(C(=O)c3noc(-c4cc(F)c(F)c(O)c4F)n3)CC2)cc1 is 960

IC50 on over expressed HSD17β13 in HEK293S cells (Homo sapiens (Human)) for O=C(c1noc(-c2cc(F)c(F)c(O)c2F)n1)N1CCC(Oc2ccc(F)cc2)C1 (stereo not shown) is 1390

IC50 on over expressed HSD17β13 in HEK293S cells (Homo sapiens (Human)) for N#Cc1c(C(=O)N2CC[C@@H](c3ccc(Cl)cc3)C2)noc1-c1cc(F)c(F)c(O)c1F is 660

IC50 on over expressed HSD17β13 in HEK293S cells (Homo sapiens (Human)) for C[C@@H]1CN(C(=O)c2noc(-c3cc(F)c(F)c(O)c3F)c2C#N)C[C@H](C)O1 is 1120
